molecular target: C-C chemokine receptor type 1 (Homo sapiens); assay: Antagonist activity at human CCR1 receptor expressed in THP1 cells assessed as human MIP-1-alpha-stimulated intracellular calcium level by FLIPR assay; type: functional, cell-based, THP-1
Sequence (P32246 whole entry): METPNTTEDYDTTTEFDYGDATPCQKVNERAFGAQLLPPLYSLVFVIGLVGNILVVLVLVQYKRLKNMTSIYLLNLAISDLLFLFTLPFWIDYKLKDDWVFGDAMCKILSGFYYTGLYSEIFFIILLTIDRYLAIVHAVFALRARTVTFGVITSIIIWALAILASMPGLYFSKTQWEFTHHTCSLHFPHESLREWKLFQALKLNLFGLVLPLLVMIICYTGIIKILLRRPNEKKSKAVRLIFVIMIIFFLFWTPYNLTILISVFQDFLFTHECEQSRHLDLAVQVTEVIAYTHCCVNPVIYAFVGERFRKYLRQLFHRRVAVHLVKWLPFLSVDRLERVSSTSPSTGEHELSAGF
pIC50: −log10 of the molar value.
Known pIC50 of a selection of compounds
endpoint: pIC50

1. COc1ccc(S(=O)(=O)NCCCN2CCC(O)(c3ccc(Cl)cc3)CC2)cc1
6.08
2. CC1CC(N2CCC(O)(c3ccc(Cl)cc3)CC2)CCN1S(=O)(=O)c1ccccc1Cl (stereo not drawn)
6.55
3. O=S(=O)(NCCCN1CCC(O)(c2ccc(Cl)cc2)CC1)c1cccc(Cl)c1Cl
6.46
4. O=S(=O)(NCCCN1CCC(O)(c2ccc(Cl)cc2)CC1)c1cc(Cl)cc(Cl)c1
5.87
5. O=S(=O)(NCCCN1CCC(O)(c2ccc(Cl)cc2)CC1)c1ccc(Cl)c(Cl)c1
5.61
6. O=S(=O)(NCCCN1CCC(O)(c2ccc(Cl)cc2)CC1)c1ccccc1Br
6.77
7. O=S(=O)(c1ccccc1Cl)N1CCC(N2CCC(O)(c3cccc(Cl)c3)CC2)CC1
5.21
8. O=S(=O)(c1ccccc1Br)N1CCC[C@@H](N2CCC(O)(c3ccc(Cl)cc3)CC2)C1
5.85
9. O=S(=O)(NCCCN1CCC(O)(c2ccc(Cl)cc2)CC1)c1ccc(OC(F)(F)F)cc1
5.44
10. O=S(=O)(NCCCN1CCC(O)(c2ccc(Cl)cc2)CC1)c1ccccc1-c1ccccc1
7.08
11. O=S(=O)(NCCCN1CCC(O)(c2ccc(Cl)cc2)CC1)c1cccc2ccccc12
6.74
12. O=S(=O)(c1cccs1)N1CCC(N2CCC(O)(c3ccc(Cl)cc3)CC2)CC1
5.99
13. O=S(=O)(NCCCN1CCC(O)(c2ccc(Cl)cc2)CC1)c1ccc(F)cc1
6.68
14. O=S(=O)(NCCCN1CCC(O)(c2ccc(Cl)cc2)CC1)c1ccccc1OC(F)(F)F
6.72
15. O=S(=O)(NCCCN1CCC(O)(c2ccc(Cl)cc2)CC1)c1ccc2ccccc2c1
6.28
16. O=S(=O)(c1ccccc1)N1CCC(N2CCC(O)(c3ccc(Cl)cc3)CC2)CC1
5.91
17. O=S(=O)(NCCCN1CCC(O)(c2ccc(Cl)cc2)CC1)c1ccc(Cl)cc1Cl
6.44
18. O=S(=O)(c1ccc(Cl)c(Cl)c1Cl)N1CCC(N2CCC(O)(c3ccc(Cl)cc3)CC2)CC1
6.17
19. CC1(N2CCC(O)(c3ccc(Cl)cc3)CC2)CCN(S(=O)(=O)c2ccccc2Cl)CC1
5.65
